# target.or.test.system: human TLR9 (Homo sapiens)
# Sequence (Q9NR96 26-1032): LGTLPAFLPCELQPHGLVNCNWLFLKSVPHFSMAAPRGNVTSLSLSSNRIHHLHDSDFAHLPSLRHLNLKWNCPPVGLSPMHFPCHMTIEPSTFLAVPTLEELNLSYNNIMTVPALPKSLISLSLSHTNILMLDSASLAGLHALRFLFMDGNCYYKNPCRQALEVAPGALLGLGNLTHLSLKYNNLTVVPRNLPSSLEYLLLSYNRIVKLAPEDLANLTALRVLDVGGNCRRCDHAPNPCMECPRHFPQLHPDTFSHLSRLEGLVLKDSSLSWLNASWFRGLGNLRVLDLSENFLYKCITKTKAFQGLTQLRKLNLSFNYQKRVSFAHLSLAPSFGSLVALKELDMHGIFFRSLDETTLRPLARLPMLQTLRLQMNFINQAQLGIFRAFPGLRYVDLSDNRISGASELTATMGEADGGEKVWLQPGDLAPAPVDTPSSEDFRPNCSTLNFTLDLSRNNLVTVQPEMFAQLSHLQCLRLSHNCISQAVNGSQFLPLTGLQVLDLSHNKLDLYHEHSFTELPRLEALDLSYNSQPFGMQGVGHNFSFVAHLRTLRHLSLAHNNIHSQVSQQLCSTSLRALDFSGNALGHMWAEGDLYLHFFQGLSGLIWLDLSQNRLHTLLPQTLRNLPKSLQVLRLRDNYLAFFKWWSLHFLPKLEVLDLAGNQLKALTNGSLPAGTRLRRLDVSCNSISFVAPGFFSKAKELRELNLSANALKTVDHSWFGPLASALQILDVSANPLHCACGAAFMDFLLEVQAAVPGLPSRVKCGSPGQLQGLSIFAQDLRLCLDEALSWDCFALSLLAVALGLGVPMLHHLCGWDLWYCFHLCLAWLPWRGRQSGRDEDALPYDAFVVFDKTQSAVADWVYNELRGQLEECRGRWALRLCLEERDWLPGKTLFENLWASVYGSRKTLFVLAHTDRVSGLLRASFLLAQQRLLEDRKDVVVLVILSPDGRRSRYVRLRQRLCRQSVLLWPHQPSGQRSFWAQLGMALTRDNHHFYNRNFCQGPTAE
# test.details: TLR9 inhibition reporter assay (HEK-Blue SEAP reporter, ODN2006 stimulation)
# condition.label: HEK-Blue cells overexpressing human TLR9, SEAP reporter, ODN2006 5 nM, 22 hour incubation
pIC50: −log10 of the molar value.
quantity.name: pIC50

[
  {
    "compound.string": "Cc1cc(-c2[nH]c3ccc(C4CCN(CC(=O)N(C)C)CC4)cc3c2C(C)C)cn(CC(C)C)c1=O",
    "target.or.test.system": "human TLR9 (Homo sapiens)",
    "quantity.name": "pIC50",
    "comparative.sign": "=",
    "reported.measurement": 5.41
  },
  {
    "compound.string": "Cc1c(-c2[nH]c3ccc(C4CCN(C(=O)CN(C)C)CC4)cc3c2C(C)C)cn(C)c(=O)c1C#N",
    "target.or.test.system": "human TLR9 (Homo sapiens)",
    "quantity.name": "pIC50",
    "comparative.sign": "=",
    "reported.measurement": 5.80
  },
  {
    "compound.string": "CCn1cc(-c2[nH]c3ccc(C4CCNCC4)cc3c2C(C)C)c(C)c(C)c1=O",
    "target.or.test.system": "human TLR9 (Homo sapiens)",
    "quantity.name": "pIC50",
    "comparative.sign": "=",
    "reported.measurement": 5.73
  },
  {
    "compound.string": "Cc1c(-c2[nH]c3ccc(C4CCNCC4)cc3c2C(C)C)cn(C)c(=O)c1-c1cccnc1",
    "target.or.test.system": "human TLR9 (Homo sapiens)",
    "quantity.name": "pIC50",
    "comparative.sign": "=",
    "reported.measurement": 5.51
  },
  {
    "compound.string": "CC(C)c1c(-c2cc(C(=O)N3CCCC3)c(=O)n(C)c2)[nH]c2ccc(C3CCNCC3)cc12",
    "target.or.test.system": "human TLR9 (Homo sapiens)",
    "quantity.name": "pIC50",
    "comparative.sign": "≤",
    "reported.measurement": 4.30
  },
  {
    "compound.string": "Cc1cc(-c2[nH]c3ccc(C4CCNCC4)cc3c2C(C)C)nn(C)c1=O",
    "target.or.test.system": "human TLR9 (Homo sapiens)",
    "quantity.name": "pIC50",
    "comparative.sign": "=",
    "reported.measurement": 5.31
  },
  {
    "compound.string": "Cc1cc(-c2[nH]c3ccc(C4CCN(CCC(N)=O)CC4)cc3c2C(C)C)cn(C)c1=O",
    "target.or.test.system": "human TLR9 (Homo sapiens)",
    "quantity.name": "pIC50",
    "comparative.sign": "=",
    "reported.measurement": 6.10
  },
  {
    "compound.string": "Cc1c(-c2[nH]c3ccc(C4CCN(C(=O)CN(C)C)CC4)cc3c2C(C)C)cc(C#N)c(=O)n1C",
    "target.or.test.system": "human TLR9 (Homo sapiens)",
    "quantity.name": "pIC50",
    "comparative.sign": "=",
    "reported.measurement": 5.68
  }
]
